target: HLA-B*15:01; test: IEDB peptide-MHC binding, purified MHC/direct/fluorescence; filed as Kd, often an IC50 or EC50 that approximates it; bounds were set here for any values at or beyond the usual limits of such assays; conditions: source organism: Influenza A virus (A/Puerto Rico/8/34/Mount Sinai(H1N1))
test_readout: Kd (nM)
Dear colleague, please return just the value in nM, with no unit written.

# sequence EEMATKADY ; its Kd = 1460

====

target: HLA-B*18:01; test: IEDB peptide-MHC binding, purified MHC/competitive/fluorescence; filed as Kd, often an IC50 or EC50 that approximates it; bounds were set here for any values at or beyond the usual limits of such assays; settings: source organism: Burkholderia pseudomallei K96243
test_readout: Kd (µM)
Dear colleague, please return just the value in µM, with no unit written.

# sequence DELWRGLLA ; its Kd = 0.0813

The values you see were collected from the Immune Epitope Database (IEDB).
